Data origin, for the record: the RNAGym collection of RNA variant scans (doi:10.7554/elife.80360)

Each entry below carries its reported self-cleavage.
B1: HDV Ribozyme (parent)
chain: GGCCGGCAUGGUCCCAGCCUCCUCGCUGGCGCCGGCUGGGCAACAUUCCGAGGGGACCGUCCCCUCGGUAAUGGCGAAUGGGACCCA

Variants of: B1
protocolDetails: self-cleavage, relative activity (ratio to wild type); higher = more cleavage; co-transcriptional
Just the number, please, no unit after it.

Take a look at these entries with their results.
# mutationNotation, self-cleavage
records = [
    ("U9A A45U", 0.719),
    ("G39A C48U", 0.504),
    ("C19G U47A", 0.106),
    ("C19G C62U", 0.116),
    ("U37A G82C", 0.0405),
]

Query string: Quick one: self-cleavage for C19U G80C ?
Result string: 0.112

Query string: Then this variant: C58G A83U
Result string: 0.776

Query string: Ok, now U27C G81C
Result string: 0.369

Query string: Param item: U23G C84G
Result string: 0.388

Query string: What do you have for C14U U46C ?
Result string: 1.03
